Tested on: rat thymocytes
Experiment: DNA fragmentation (flow cytometry) in cultured rat thymocytes
Type: cell-based
Conditions: Rattus norvegicus, Thymocyte, cultured rat thymocytes, experiment of FIG. 5; read-out: IC50, inhibition of DNA fragmentation
endpoint-label: pIC50
Give only the number. pIC50 is defined as minus log10 of concentration in molar units.

Need pIC50 of CCCCCN(C)CC(=O)[C@H](CC(=O)O)NC(=O)[C@H](CC)n1cc(C(C)(C)C)nc(NCc2nonc2C)c1=O , thanks. 6.62
